Tested on: Human immunodeficiency virus 2
assay-comment: Antiviral activity against HIV-2 ROD infected in MT4 cells assessed as inhibition of virus-induced cytopathicity
Assay type: functional, organism-based
experimental-parameters: Human immunodeficiency virus 2, ISOLATE ROD
reported-endpoint: IC50

{"columns": ["compound", "test-system", "reported-endpoint", "experimental-value"],
 "data": [
  ["COc1cc2c(cc1OC)C1=NN(C(=O)Nc3ccc(Br)cc3)C(c3ccccc3)C1C2 (stereo not drawn)", "Human immunodeficiency virus 2", "IC50", "> 86 µM"],
  ["COc1cc2c(cc1OC)C1=NN(C(=O)Nc3ccc(Br)cc3)C(c3ccc(F)cc3)C1C2 (stereo not drawn)", "Human immunodeficiency virus 2", "IC50", "> 108 µM"],
  ["COc1cc2c(cc1OC)C1=NN(C(N)=S)C(c3ccncc3)C1C2 (stereo not drawn)", "Human immunodeficiency virus 2", "IC50", "> 36.9 µM"],
  ["COc1cc2c(cc1OC)C1=NN(C(=O)Nc3c(C)cccc3C)C(c3ccc(F)cc3)C1C2 (stereo not drawn)", "Human immunodeficiency virus 2", "IC50", "> 9.36 µM"],
  ["COc1cc2c(cc1OC)C1=NN(C(=O)Nc3c(C)cccc3C)C(c3ccccc3Cl)C1C2 (stereo not drawn)", "Human immunodeficiency virus 2", "IC50", "> 159 µM"],
  ["COc1ccc(C2C3Cc4cc(OC)c(OC)cc4C3=NN2C(N)=O)cc1OC (stereo not drawn)", "Human immunodeficiency virus 2", "IC50", "> 151 µM"],
  ["COc1ccc(C2C3Cc4cc(OC)c(OC)cc4C3=NN2C(=O)Nc2ccc(F)c(Cl)c2)cc1OC (stereo not drawn)", "Human immunodeficiency virus 2", "IC50", "> 223 µM"],
  ["COc1cc2c(cc1OC)C1=NN(C(=O)Nc3c(C)cccc3C)C(c3ccccc3)C1C2 (stereo not drawn)", "Human immunodeficiency virus 2", "IC50", "> 211 µM"],
  ["COc1ccc(C2C3Cc4cc(OC)c(OC)cc4C3=NN2C(=O)Nc2c(C)cccc2C)cc1 (stereo not drawn)", "Human immunodeficiency virus 2", "IC50", "> 169 µM"],
  ["COc1cc2c(cc1OC)C1=NN(C(=O)Nc3ccc(Cl)cc3)C(c3ccccc3Cl)C1C2 (stereo not drawn)", "Human immunodeficiency virus 2", "IC50", "> 22.9 µM"],
  ["COc1cc2c(cc1OC)C1=NN(C(=O)Nc3ccc(F)c(Cl)c3)C(c3ccccc3)C1C2 (stereo not drawn)", "Human immunodeficiency virus 2", "IC50", "> 35.8 µM"],
  ["COc1cc2c(cc1OC)C1=NN(C(=O)Nc3ccc(F)c(Cl)c3)C(c3ccccc3Cl)C1C2 (stereo not drawn)", "Human immunodeficiency virus 2", "IC50", "> 11.8 µM"],
  ["COc1cc2c(cc1OC)C1=NN(C(=O)Nc3ccc(C)cc3C)C(c3ccccc3Cl)C1C2 (stereo not drawn)", "Human immunodeficiency virus 2", "IC50", "> 11 µM"],
  ["COc1ccc(C2C3Cc4cc(OC)c(OC)cc4C3=NN2C(=O)Nc2ccc(Br)cc2)cc1OC (stereo not drawn)", "Human immunodeficiency virus 2", "IC50", "> 150 µM"],
  ["COc1cc2c(cc1OC)C1=NN(C(=O)Nc3ccc(F)cc3)C(c3ccccc3Cl)C1C2 (stereo not drawn)", "Human immunodeficiency virus 2", "IC50", "> 9.09 µM"],
  ["COc1cc2c(cc1OC)C1=NN(C(N)=O)C(c3ccncc3)C1C2 (stereo not drawn)", "Human immunodeficiency virus 2", "IC50", "> 40.4 µM"],
  ["COc1ccc(C2C3Cc4cc(OC)c(OC)cc4C3=NN2C(=O)Nc2ccc(Br)cc2)cc1 (stereo not drawn)", "Human immunodeficiency virus 2", "IC50", "> 136 µM"],
  ["COc1ccc(C2C3Cc4cc(OC)c(OC)cc4C3=NN2C(=O)Nc2ccc(F)cc2)cc1OC (stereo not drawn)", "Human immunodeficiency virus 2", "IC50", "> 208 µM"],
  ["COc1cc2c(cc1OC)C1=NN(C(=O)Nc3ccc(C)cc3C)C(c3ccncc3)C1C2 (stereo not drawn)", "Human immunodeficiency virus 2", "IC50", "> 25.2 µM"],
  ["COc1cc2c(cc1OC)C1=NN(C(N)=O)C(c3ccccc3Cl)C1C2 (stereo not drawn)", "Human immunodeficiency virus 2", "IC50", "> 6.47 µM"],
  ["COc1cc2c(cc1OC)C1=NN(C(=O)Nc3ccc(Br)cc3)C(c3ccccc3Cl)C1C2 (stereo not drawn)", "Human immunodeficiency virus 2", "IC50", "> 11.5 µM"],
  ["COc1ccc(C2C3Cc4cc(OC)c(OC)cc4C3=NN2C(N)=S)cc1OC (stereo not drawn)", "Human immunodeficiency virus 2", "IC50", "> 158 µM"],
  ["COc1cc2c(cc1OC)C1=NN(C(N)=S)C(c3ccccc3Cl)C1C2 (stereo not drawn)", "Human immunodeficiency virus 2", "IC50", "> 6.87 µM"]
]}

All values here come from ChEMBL document CHEMBL2203270.
